// provenance: patent US11560372B2

# System: Male ICR mice
# assayText: Mouse defecation experiment
# Format: in vivo
# testSettings: 1 mg/kg orally, mean±standard error
Lab note: anything with number of feces 2 hr later at or over 7 counts as met; the rest go in not met.

INSERT INTO measurements (smilestext, labelvalue) VALUES
  ('Cc1nn(C)cc1-c1ccc(Cc2cc3c(=O)n([C@H]4CCOC[C@@H]4O)cnc3c(C)c2C)cn1', 'not met'),
  ('CNC(=O)c1ccc(Cc2cc3c(=O)n([C@H]4CCOC[C@@H]4O)nnc3c(Cl)c2C)cc1F', 'met'),
  ('Cc1c(Cc2ccc(-c3cn(C)nn3)nc2)cc2c(=O)n([C@H]3CCOC[C@@H]3O)cnc2c1C', 'not met'),
  ('CNC(=O)c1ccc(Cc2cc3c(=O)n([C@H]4CCOC[C@@H]4O)cnc3c(C)c2C)cc1F', 'met');

Query compound follows.
*Q* Check the entry COCCNC(=O)c1ccc(Cc2cc3c(=O)n([C@H]4CCOC[C@@H]4O)cnc3c(C)c2C)cc1F : does number of feces 2 hr later equal or exceed 7?
*A* met

---

# assayText: Mouse PK test (cassette dosing)
# Format: in vivo
# testSettings: male, ICR, plasma, mouse, total clearance, intravenous 0.1 mg/kg, read-out: CL total (converted)
Response field label takes Fulfilled when clearance is strictly below 10 mL/min/kg and Not fulfilled in all other cases.

Consider the following illustrative entries.
INSERT INTO measurements (smilestext, labelvalue) VALUES
  ('Cc1c(Cc2ccc(-c3cnn(C)c3)nc2)cc2c(=O)n([C@H]3CCOC[C@@H]3O)cnc2c1C', 'Fulfilled'),
  ('CNC(=O)c1ccc(Cc2cc3c(=O)n([C@H]4CCOC[C@@H]4O)nnc3c(Cl)c2C)cc1F', 'Fulfilled'),
  ('Cc1nn(C)cc1-c1ccc(Cc2cc3c(=O)n([C@H]4CCOC[C@@H]4O)cnc3c(C)c2C)cn1', 'Fulfilled'),
  ('Cc1c(Cc2ccc(-c3cn(C)nn3)nc2)cc2c(=O)n([C@H]3CCOC[C@@H]3O)cnc2c1C', 'Not fulfilled'),
  ('COCCNC(=O)c1ccc(Cc2cc3c(=O)n([C@H]4CCOC[C@@H]4O)cnc3c(C)c2C)cc1F', 'Not fulfilled');

Okay, now this compound:
*Q* Is the reported clearance for Cc1c(Cc2ccc(C(=O)NC[C@H]3CCCO3)c(F)c2)cc2c(=O)n([C@H]3CCOC[C@@H]3O)cnc2c1C strictly below 10 mL/min/kg?
*A* Not fulfilled

---

Measured pEC50 by item
# assaySystem: UniProt:P11229
# assayText: Measurement of M1 receptor positive allosteric modulator (M1PAM) activity, calcium fluorescence in CHO-K1 cells
# testSettings: inflection point of concentration-dependent curve; in the presence of acetylcholine at EC20 concentration (final 0.8-1.0 nM); read-out: IP value
Quick note: pEC50 means taking -log10 of the concentration in moles per liter.

INSERT INTO results (compound, propertyname, observedvalue) VALUES
  ('Cc1c(Cc2ccc(-c3cnn(C4CC4)c3)nc2)cc2c(=O)n([C@H]3CCOC[C@@H]3O)cnc2c1C', 'pEC50', 8.68),
  ('Cc1c(Cc2ccc(-c3cnn(C4CCOCC4)c3)nc2)cc2c(=O)n([C@H]3CCOC[C@@H]3O)cnc2c1C', 'pEC50', 8.52),
  ('Cc1c(Cc2ccc(-c3cnn(C)c3)cc2)cc2c(=O)n([C@H]3CCOC[C@@H]3O)cnc2c1F', 'pEC50', 8.43),
  ('Cc1c(Cc2ccc(-c3cn(C)nn3)cc2)cc2c(=O)n([C@H]3CCOC[C@@H]3O)cnc2c1C', 'pEC50', 8.85),
  ('Cc1c(Cc2ccc(C(=O)NC3COC3)cc2)cc2c(=O)n([C@H]3CCOC[C@@H]3O)cnc2c1C', 'pEC50', 8.85);

The compound Cc1c(Cc2ccc(-c3cnn(CC4CC4)c3)nc2)cc2c(=O)n([C@H]3CCOC[C@@H]3O)cnc2c1C showed pEC50 equal to 8.60

The reported value for CNC(=O)c1ccc(Cc2cc3c(=O)n([C@H]4CCOC[C@@H]4O)cnc3c(C)c2C)cc1 in terms of pEC50 is 9.00

Lookup result for COc1cc2ncn([C@H]3CCOC[C@@H]3O)c(=O)c2cc1Cc1ccc(-c2cn(C)cn2)cc1 ; measured pEC50: 8.66

The value of pEC50 measured for the compound Cc1c(Cc2ccc(C(=O)NC3CCOC3)cc2)cc2c(=O)n([C@H]3CCOC[C@@H]3O)cnc2c1C (stereo partly shown) turned out to be 8.74

Field pEC50 (entry Cc1nn(C)cc1-c1ccc(Cc2cc3c(=O)n([C@H]4CCOC[C@@H]4O)cnc3c(C)c2C)cn1 ) reads 8.82

Record Cc1cc(-c2ccc(Cc3cc4c(=O)n([C@H]5CCOC[C@@H]5O)cnc4c(C)c3C)cc2)cnn1 . Reported pEC50: 8.70

Entry Cc1c(Cc2ccc(C(=O)NCC3COC3)c(F)c2)cc2c(=O)n([C@H]3CCOC[C@@H]3O)cnc2c1C , pEC50 reported as 8.82

Per the record, Cc1c(Cc2ccc(C(=O)NCCN3CCCC3=O)c(F)c2)cc2c(=O)n([C@H]3CCOC[C@@H]3O)cnc2c1C has pEC50 of 8.70

Lookup result for Cc1c(Cc2ccc(-c3ccn(C)n3)nc2)cc2c(=O)n([C@H]3CCOC[C@@H]3O)nnc2c1C ; measured pEC50: 8.59

---

# assaySystem: human M1 receptor (hCHRM1) (Homo sapiens, UniProt P11229)
# Construct: expressed in transfected cells
# Sequence (P11229 whole entry): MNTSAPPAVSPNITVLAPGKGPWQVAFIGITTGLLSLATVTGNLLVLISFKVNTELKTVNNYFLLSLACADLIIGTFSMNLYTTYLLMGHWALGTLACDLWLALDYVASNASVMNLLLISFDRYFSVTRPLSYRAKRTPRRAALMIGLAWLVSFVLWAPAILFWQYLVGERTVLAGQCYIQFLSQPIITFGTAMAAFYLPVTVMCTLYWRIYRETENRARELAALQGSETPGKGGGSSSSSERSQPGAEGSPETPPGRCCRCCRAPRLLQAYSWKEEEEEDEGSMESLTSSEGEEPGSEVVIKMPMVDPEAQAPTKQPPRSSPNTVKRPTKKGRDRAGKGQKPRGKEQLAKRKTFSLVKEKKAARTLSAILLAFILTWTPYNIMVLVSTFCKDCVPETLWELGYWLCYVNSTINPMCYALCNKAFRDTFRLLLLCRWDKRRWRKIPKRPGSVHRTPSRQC
# assayText: Measurement of M1 receptor positive allosteric modulator (M1PAM) activity, calcium fluorescence in CHO-K1 cells
# Assay type: cell-based
# testSettings: 10 μM test compound; 100% = acetylcholine final concentration 1 μM, 0% = DMSO
propertyName: activity (%) at 10 μM
Just the number please, in %, no unit attached.

INSERT INTO measurements (smilestext, assaysystem, propertyname, unitannotation, observedvalue) VALUES
  ('Cc1cc(-c2ccc(Cc3cc4c(=O)n([C@H]5CCOC[C@@H]5O)cnc4c(C)c3C)cc2)cnn1', 'human M1 receptor (hCHRM1) (Homo sapiens, UniProt P11229)', 'activity (%) at 10 μM', '%', 101),
  ('Cc1c(Cc2ccc(C(=O)NC3CS(=O)(=O)C3)c(F)c2)cc2c(=O)n([C@H]3CCOC[C@@H]3O)cnc2c1C', 'human M1 receptor (hCHRM1) (Homo sapiens, UniProt P11229)', 'activity (%) at 10 μM', '%', 109),
  ('Cc1c(Cc2ccc(C(=O)NCC3CC3)cc2)cc2c(=O)n([C@H]3CCOC[C@@H]3O)cnc2c1C', 'human M1 receptor (hCHRM1) (Homo sapiens, UniProt P11229)', 'activity (%) at 10 μM', '%', 112);

# activity (%) at 10 μM (compound: Cc1c(Cc2ccc(C(=O)NCCS(C)(=O)=O)c(F)c2)cc2c(=O)n([C@H]3CCOC[C@@H]3O)cnc2c1C ) is 106

---

# assaySystem: MDR1 (Homo sapiens)
# Construct: expressed in transfected cells
# Sequence (P08183 whole entry): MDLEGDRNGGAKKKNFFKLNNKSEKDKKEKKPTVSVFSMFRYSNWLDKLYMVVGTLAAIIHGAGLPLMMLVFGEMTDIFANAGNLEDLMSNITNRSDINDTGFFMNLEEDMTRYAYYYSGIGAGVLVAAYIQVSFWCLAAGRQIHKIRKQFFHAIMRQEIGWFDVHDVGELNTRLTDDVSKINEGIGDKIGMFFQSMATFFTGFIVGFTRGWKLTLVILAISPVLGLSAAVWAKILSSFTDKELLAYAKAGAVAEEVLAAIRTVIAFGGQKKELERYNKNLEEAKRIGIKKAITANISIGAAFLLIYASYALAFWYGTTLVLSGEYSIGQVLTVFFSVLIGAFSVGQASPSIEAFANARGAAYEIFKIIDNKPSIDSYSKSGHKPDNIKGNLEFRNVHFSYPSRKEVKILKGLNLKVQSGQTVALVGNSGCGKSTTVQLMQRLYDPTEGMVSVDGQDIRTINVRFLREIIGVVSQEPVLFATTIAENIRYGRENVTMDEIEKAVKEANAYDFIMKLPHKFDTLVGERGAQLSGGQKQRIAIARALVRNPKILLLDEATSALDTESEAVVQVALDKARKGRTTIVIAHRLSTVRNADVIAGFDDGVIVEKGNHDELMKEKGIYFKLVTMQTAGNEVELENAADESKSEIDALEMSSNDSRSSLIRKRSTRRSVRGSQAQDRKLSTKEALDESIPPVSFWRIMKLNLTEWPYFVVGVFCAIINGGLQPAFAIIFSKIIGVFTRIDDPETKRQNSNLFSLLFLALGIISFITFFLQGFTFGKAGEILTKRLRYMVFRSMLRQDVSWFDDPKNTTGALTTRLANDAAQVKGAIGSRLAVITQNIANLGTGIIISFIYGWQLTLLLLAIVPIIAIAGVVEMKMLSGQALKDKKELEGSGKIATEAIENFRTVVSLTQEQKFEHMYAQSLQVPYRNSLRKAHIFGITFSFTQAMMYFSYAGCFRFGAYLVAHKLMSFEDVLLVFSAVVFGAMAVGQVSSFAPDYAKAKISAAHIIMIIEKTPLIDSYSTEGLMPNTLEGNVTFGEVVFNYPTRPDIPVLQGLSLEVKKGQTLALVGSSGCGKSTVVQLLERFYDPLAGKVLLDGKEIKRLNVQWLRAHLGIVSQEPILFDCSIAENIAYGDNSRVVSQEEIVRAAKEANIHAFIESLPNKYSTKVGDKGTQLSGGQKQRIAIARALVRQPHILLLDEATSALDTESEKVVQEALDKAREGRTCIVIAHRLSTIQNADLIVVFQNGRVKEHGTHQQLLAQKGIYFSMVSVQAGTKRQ
# assayText: MDR1 membrane permeability test
# Type: in vitro ADME
# testSettings: pH 7.4, efflux ratio (ER), Papp B to A / A to B, human MDR1-expressing LLC-PK1 cells, read-out: MDR1 substrate screening 1 μM (MDRSUB1)/Ratio (NUMBER)
propertyName: efflux ratio at 1 hr, 1 μM
Number only, please.

INSERT INTO results (smilestext, observedvalue) VALUES
  ('Cc1c(Cc2ccc(-c3cn(C)nn3)cc2)cc2c(=O)n([C@H]3CCOC[C@@H]3O)cnc2c1Cl', 9.7),
  ('COc1cc2ncn([C@H]3CCOC[C@@H]3O)c(=O)c2cc1Cc1ccc(-c2cn(C)nn2)nc1', 36);

Reported efflux ratio at 1 hr, 1 μM (MDR1 (Homo sapiens)) for entry Cc1c(Cc2ccc(-c3cnn(C)c3)nc2)cc2c(=O)n([C@H]3CCOC[C@@H]3O)nnc2c1Cl is 9.5

# value of efflux ratio at 1 hr, 1 μM, MDR1 (Homo sapiens), item Cc1c(Cc2ccc(-c3cnn(C)c3)nc2)cc2c(=O)n([C@H]3CCOC[C@@H]3O)cnc2c1Cl = 17

---

# assayText: Mouse PK test (cassette dosing)
# Format: in vivo
# testSettings: male, ICR, mouse plasma, time to reach maximum plasma concentration, oral 1 mg/kg
Each record here notes measured Tmax.
Please state the number and follow it with the unit.

INSERT INTO assay_data (smilestext, observedvalue) VALUES
  ('CNC(=O)c1ccc(Cc2cc3c(=O)n([C@H]4CCOC[C@@H]4O)nnc3c(Cl)c2C)cc1F', '1.7 h'),
  ('COCCNC(=O)c1ccc(Cc2cc3c(=O)n([C@H]4CCOC[C@@H]4O)cnc3c(C)c2C)cc1F', '0.7 h'),
  ('Cc1nn(C)cc1-c1ccc(Cc2cc3c(=O)n([C@H]4CCOC[C@@H]4O)cnc3c(C)c2C)cn1', '0.7 h'),
  ('CNC(=O)c1ccc(Cc2cc3c(=O)n([C@H]4CCOC[C@@H]4O)cnc3c(C)c2C)cc1F', '1.7 h'),
  ('Cc1c(Cc2ccc(-c3cn(C)nn3)nc2)cc2c(=O)n([C@H]3CCOC[C@@H]3O)cnc2c1C', '1 h'),
  ('Cc1c(Cc2ccc(-c3cnn(C)c3)nc2)cc2c(=O)n([C@H]3CCOC[C@@H]3O)cnc2c1C', '1.7 h');

Lab note: next molecule to report on.
The molecule identified as Cc1c(Cc2ccc(C(=O)NC[C@H]3CCCO3)c(F)c2)cc2c(=O)n([C@H]3CCOC[C@@H]3O)cnc2c1C registered its Tmax at 0.5 h
